Tested on: Plasmodium falciparum
TEST SUMMARY: GSK_TCMDC: Inhibition of Plasmodium falciparum 3D7 in whole red blood cells, using parasite LDH activity as an index of growth. Test compounds present at 2uM
Format: functional
Here the recorded Inhibition is given for each entry.
Output spec: scalar in %, unitless text.

Guide cases for Inhibition, answers given:
- COMPOUND: "CC(C)(C)c1ccc(NC(=O)c2cccc(CN3CCCN(Cc4cccc(Cl)c4)CC3)c2)cc1.O=C(O)C(F)(F)F"
  TEST TARGET: "Plasmodium falciparum"
  Inhibition [%]: 85
- COMPOUND: "COC(=O)Cn1c(C2CCN(CC3CCN(C(=O)/C=C/c4ccc(Cl)c(Cl)c4)CC3)CC2)nc2ccccc21"
  TEST TARGET: "Plasmodium falciparum"
  Inhibition [%]: 86
- COMPOUND: "CC(C)(C)c1cc(C(=O)N2CCC(c3ccccn3)CC2)n(Cc2ccccc2)n1"
  TEST TARGET: "Plasmodium falciparum"
  Inhibition [%]: 96
- COMPOUND: "CN1CCN(c2ccnc3ccc(NC(=O)Nc4ccc(-c5ccncc5)c5ccccc45)cc23)CC1"
  TEST TARGET: "Plasmodium falciparum"
  Inhibition [%]: 100
- COMPOUND: "CC1(C)N=C(N)N=C(N)N1c1cccc(Cl)c1.Cl"
  TEST TARGET: "Plasmodium falciparum"
  Inhibition [%]: 96
- COMPOUND: "CO.Cc1nc(N)nc(N)c1OCc1cccc2c1ccc1ccccc12.Cl"
  TEST TARGET: "Plasmodium falciparum"
  Inhibition [%]: 95

In: Provide only the value of recorded Inhibition for `CCN(C)C(=O)n1ncc2c3c(N)nc(N)nc3ccc21`
Out: 95

In: Provide only the value of recorded Inhibition for `Fc1ccc2[nH]c(-c3cccc(-c4ccc(CN5CCN(CCN6CCOCC6)CC5)cc4)c3)nc2c1.O=C(O)C(F)(F)F`
Out: 100

In: Provide only the value of recorded Inhibition for `COc1ccc(-c2cccc(NC(=O)c3cccc(C#N)c3)c2)cc1CN(C)CCN(C)C.O=C(O)C(F)(F)F`
Out: 99
